Tested on: Escherichia coli
assayExplanation: Antibacterial activity against Escherichia coli ATCC 25922 after 18 to 24 hrs by two-fold serial dilution method
Format: functional
Each entry below carries its reported MIC.

compound: CCO/N=C1/CN(c2nc3c(cc2F)c(=O)c(C(=O)O)cn3[C@@H]2C[C@@H]2F)CC1(C)CNC1CC1 (some centres undefined)
targetOfAssay: Escherichia coli
unitDescriptor: µg/mL
MIC: 2

compound: CO/N=C1/CN(c2nc3c(cc2F)c(=O)c(C(=O)O)cn3-c2nc(N)c(F)cc2F)CC1CNC1CC1 (centres undefined)
targetOfAssay: Escherichia coli
unitDescriptor: µg/mL
MIC: 4

compound: CCO/N=C1/CN(c2nc3c(cc2F)c(=O)c(C(=O)O)cn3-c2nc(N)c(F)cc2F)CC1(C)CNC1CC1 (centres undefined)
targetOfAssay: Escherichia coli
unitDescriptor: µg/mL
MIC: 32

compound: CO/N=C1/CN(c2c(F)cc3c(=O)c(C(=O)O)cn4c3c2OC[C@@H]4C)CC1(C)CNC1CC1 (some centres undefined)
targetOfAssay: Escherichia coli
unitDescriptor: µg/mL
MIC: 2

###

System: Staphylococcus aureus
assayExplanation: Antibacterial activity against methicillin-resistant Staphylococcus aureus 14-5 after 18 to 24 hrs by two-fold serial dilution method
Type: functional
Each entry below carries its reported MIC.

molecule: O=C(O)c1cn2c3c(c(N4C/C(=N/OCc5ccccc5)C(CNC5CC5)C4)c(F)cc3c1=O)OC[C@@H]2CF (stereo partly drawn)
MIC, µg/mL: 4

molecule: CCO/N=C1/CN(c2nc3c(cc2F)c(=O)c(C(=O)O)cn3C2CC2)CC1(C)CNC1CC1 (stereo not drawn)
MIC, µg/mL: 4

molecule: CO/N=C1/CN(c2nc3c(cc2F)c(=O)c(C(=O)O)cn3C2CC2)CC1(C)CNC1CC1 (stereo not drawn)
MIC, µg/mL: 4

molecule: CC1(CNC2CC2)CN(c2nc3c(cc2F)c(=O)c(C(=O)O)cn3C2CC2)C/C1=N/OCc1ccccc1 (stereo not drawn)
MIC, µg/mL: 2

molecule: CO/N=C1/CN(c2c(F)cc3c(=O)c(C(=O)O)cn4c3c2OC[C@@H]4C)CC1(C)CNC1CC1 (stereo partly drawn)
MIC, µg/mL: 4

molecule: CCO/N=C1/CN(c2nc3c(cc2F)c(=O)c(C(=O)O)cn3C2CC2)CC1CNC1CC1 (stereo not drawn)
MIC, µg/mL: 8

molecule: O=C(O)c1cn(C2CC2)c2nc(N3C/C(=N/OCc4ccccc4)C(CNC4CC4)C3)c(F)cc2c1=O (stereo not drawn)
MIC, µg/mL: 16

molecule: CCO/N=C1/CN(c2nc3c(cc2F)c(=O)c(C(=O)O)cn3[C@@H]2C[C@@H]2F)CC1CNC1CC1 (stereo partly drawn)
MIC, µg/mL: 8

###

System: Staphylococcus epidermidis
assayExplanation: Antibacterial activity against methicillin-resistant Staphylococcus epidermidis 14-22 after 18 to 24 hrs by two-fold serial dilution method
Assay type: functional
resultType: log10 of MIC (log10 of the value in µg/mL)

compound: C[C@H]1COc2c(N3C/C(=N/OCc4ccccc4)C(CNC4CC4)C3)c(F)cc3c(=O)c(C(=O)O)cn1c23 (some centres not stated)
log10 of MIC: 0.60

compound: O=C(O)c1cn(C2CC2)c2nc(N3C/C(=N/OCc4ccccc4)C(CNC4CC4)C3)c(F)cc2c1=O (configuration not stated)
log10 of MIC: 1.20

compound: CCO/N=C1/CN(c2nc3c(cc2F)c(=O)c(C(=O)O)cn3[C@@H]2C[C@@H]2F)CC1CNC1CC1 (some centres not stated)
log10 of MIC: 0.90

compound: CO/N=C1/CN(c2c(F)cc3c(=O)c(C(=O)O)cn4c3c2OC[C@@H]4C)CC1(C)CNC1CC1 (some centres not stated)
log10 of MIC: 0.30

compound: CCO/N=C1/CN(c2nc3c(cc2F)c(=O)c(C(=O)O)cn3[C@@H]2C[C@@H]2F)CC1(C)CNC1CC1 (some centres not stated)
log10 of MIC: 0.60

compound: O=C(O)c1cn(C2CC2)c2cc(N3CCNCC3)c(F)cc2c1=O [CIPROFLOXACIN]
log10 of MIC: 2.11

compound: Nc1nc(-n2cc(C(=O)O)c(=O)c3cc(F)c(N4C/C(=N/OCc5ccccc5)C(CNC5CC5)C4)nc32)c(F)cc1F (configuration not stated)
log10 of MIC: 2.11

compound: CO/N=C1/CN(c2nc3c(cc2F)c(=O)c(C(=O)O)cn3-c2nc(N)c(F)cc2F)CC1CNC1CC1 (configuration not stated)
log10 of MIC: 1.51

compound: CC1(CNC2CC2)CN(c2nc3c(cc2F)c(=O)c(C(=O)O)cn3C2CC2)C/C1=N/OCc1ccccc1 (configuration not stated)
log10 of MIC: 0.60

compound: CO/N=C1/CN(c2nc3c(cc2F)c(=O)c(C(=O)O)cn3-c2nc(N)c(F)cc2F)CC1(C)CNC1CC1 (configuration not stated)
log10 of MIC: 1.51

compound: CO/N=C1/CN(c2c(F)cc3c(=O)c(C(=O)O)cn4c3c2OC[C@@H]4CF)CC1(C)CNC1CC1 (some centres not stated)
log10 of MIC: 0.60

compound: CCO/N=C1/CN(c2c(F)cc3c(=O)c(C(=O)O)cn4c3c2OC[C@@H]4C)CC1(C)CNC1CC1 (some centres not stated)
log10 of MIC: 0.90

compound: CC1(CNC2CC2)CN(c2nc3c(cc2F)c(=O)c(C(=O)O)cn3-c2nc(N)c(F)cc2F)C/C1=N/OCc1ccccc1 (configuration not stated)
log10 of MIC: 2.11

compound: CCO/N=C1/CN(c2nc3c(cc2F)c(=O)c(C(=O)O)cn3C2CC2)CC1CNC1CC1 (configuration not stated)
log10 of MIC: 1.20

compound: CO/N=C1/CN(c2nc3c(cc2F)c(=O)c(C(=O)O)cn3C2CC2)CC1(C)CNC1CC1 (configuration not stated)
log10 of MIC: 0.30

compound: CCO/N=C1/CN(c2c(F)cc3c(=O)c(C(=O)O)cn([C@@H]4C[C@@H]4F)c3c2OC)CC1CNC1CC1 (some centres not stated)
log10 of MIC: 0.90

###

System: Staphylococcus epidermidis
assayExplanation: Antibacterial activity against methicillin-resistant Staphylococcus epidermidis 14-22 after 18 to 24 hrs by two-fold serial dilution method
Assay type: functional
resultType: MIC (µg/mL)

compound: CO/N=C1/CN(c2c(F)cc3c(=O)c(C(=O)O)cn(C4CC4)c3c2OC)CC1CNC1CC1 (stereo not drawn)
targetOfAssay: Staphylococcus epidermidis
reportedRelation: >
observedValue: 128
--
compound: O=C(O)c1cn([C@@H]2C[C@@H]2F)c2nc(N3C/C(=N/OCc4ccccc4)C(CNC4CC4)C3)c(F)cc2c1=O (stereo partly drawn)
targetOfAssay: Staphylococcus epidermidis
reportedRelation: =
observedValue: 8
--
compound: CCO/N=C1/CN(c2nc3c(cc2F)c(=O)c(C(=O)O)cn3-c2nc(N)c(F)cc2F)CC1CNC1CC1 (stereo not drawn)
targetOfAssay: Staphylococcus epidermidis
reportedRelation: =
observedValue: 32

###

System: Staphylococcus epidermidis
assayExplanation: Antibacterial activity against methicillin-resistant Staphylococcus epidermidis 14-22 after 18 to 24 hrs by two-fold serial dilution method
Assay type: functional
Each entry below carries its reported MIC.
resultType: MIC (µg/mL)

compound: C[C@H]1COc2c(N3CCN(C)CC3)c(F)cc3c(=O)c(C(=O)O)cn1c23.C[C@H]1COc2c(N3CCN(C)CC3)c(F)cc3c(=O)c(C(=O)O)cn1c23.O
resultType: MIC
unitDescriptor: µg/mL
observedValue: 32
--
compound: CO/N=C1/CN(c2nc3c(cc2F)c(=O)c(C(=O)O)cn3C2CC2)CC1CNC1CC1 (stereo not drawn)
resultType: MIC
unitDescriptor: µg/mL
observedValue: 16
--
compound: CO/N=C1/CN(c2nc3c(cc2F)c(=O)c(C(=O)O)cn3[C@@H]2C[C@@H]2F)CC1CNC1CC1 (stereo partly drawn)
resultType: MIC
unitDescriptor: µg/mL
observedValue: 16
--
compound: CC1(CNC2CC2)CN(c2nc3c(cc2F)c(=O)c(C(=O)O)cn3[C@@H]2C[C@@H]2F)C/C1=N/OCc1ccccc1 (stereo partly drawn)
resultType: MIC
unitDescriptor: µg/mL
observedValue: 16
--
compound: CCO/N=C1/CN(c2nc3c(cc2F)c(=O)c(C(=O)O)cn3C2CC2)CC1(C)CNC1CC1 (stereo not drawn)
resultType: MIC
unitDescriptor: µg/mL
observedValue: 4
--
compound: CO/N=C1/CN(c2nc3c(cc2F)c(=O)c(C(=O)O)cn3[C@@H]2C[C@@H]2F)CC1(C)CNC1CC1 (stereo partly drawn)
resultType: MIC
unitDescriptor: µg/mL
observedValue: 4
--
compound: O=C(O)c1cn2c3c(c(N4C/C(=N/OCc5ccccc5)C(CNC5CC5)C4)c(F)cc3c1=O)OC[C@@H]2CF (stereo partly drawn)
resultType: MIC
unitDescriptor: µg/mL
observedValue: 2
--
compound: CCO/N=C1/CN(c2nc3c(cc2F)c(=O)c(C(=O)O)cn3-c2nc(N)c(F)cc2F)CC1(C)CNC1CC1 (stereo not drawn)
resultType: MIC
unitDescriptor: µg/mL
observedValue: 128
